target: Bcl-xL, Q07817; assay: peptide SPOT array, c-Myc-tagged receptor at 1 uM or 100 nM, anti-c-Myc-Cy3
Sequence (Q07817 1-209): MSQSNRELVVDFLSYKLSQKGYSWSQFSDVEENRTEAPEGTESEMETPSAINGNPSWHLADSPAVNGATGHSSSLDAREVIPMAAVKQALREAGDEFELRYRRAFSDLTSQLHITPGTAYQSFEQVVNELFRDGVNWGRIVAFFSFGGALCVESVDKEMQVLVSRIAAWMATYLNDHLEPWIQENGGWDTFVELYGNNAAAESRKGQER
Quantity Kind: SPOT signal as a fraction of Bim BH3's signal on the same receptor and array

binder="RTNNYQLSDELRKNGVELTSLRQKVA [GRIPAP1]" value_measured=0.39
binder="KLPVVGIGKHDCGMATDLALRCLVET [CCDC76]" value_measured=0.01
binder="GFQVLNAIENLDDNAQRYDLDGLEKA [C9orf167]" value_measured=0.03
binder="CALIAGATLHVAWLLDSQVILVQQGQ [PPM1F]" value_measured=0.02

# credit: paper PMC4072508
